System: Rhizoctonia solani
Test: In vitro mycelial/spore growth on potato-sucrose-agar, percent disease control (RS, first column)
Assay type: cell-based
Conditions: 50 ppm, read-out: % controlled, RS
Procedure: The compounds of this invention were dissolved respectively in acetone in an amount equal to 10% of the final volume and then in purified water at the concentration of 100 ppm and 50 ppm. Each of the solution was mixed with potato-sucrose-agar medium in 6" petri dish and one of the fungi was spotted at the center of the dish. The dish was incubated in growth room for several days. The percent disease control was derived from the radii of spore growth. […]
RECORDED_METRIC: inhibition of growth at 50 ppm (%)
The answer is to be given in %; state only the numeric part.

Here's what some known entries look like.
- COMPOUND: "Fc1ccc([Si]2(Cn3cncn3)CCCC2)c(F)c1"
  inhibition of growth at 50 ppm (%): 76
- COMPOUND: "CC(n1cncn1)[Si]1(c2ccc(F)cc2)CCCCC1 (stereo not drawn)"
  inhibition of growth at 50 ppm (%): 100
- COMPOUND: "Clc1ccc([Si]2(Cn3cncn3)CCCC2)c(Cl)c1"
  inhibition of growth at 50 ppm (%): 65

*Q* Entry CC(n1cncn1)[Si]1(c2ccc(Cl)cc2)CCCC1 (stereo not drawn) : reported inhibition of growth at 50 ppm = ?
*A* 100

*Q* Please do the same for CC(n1cncn1)[Si]1(c2ccc(F)cc2F)CCCC1 (stereo not drawn) as well.
*A* 79

*Q* Please do the same for CCOc1ccc([Si]2(C(C)n3cncn3)CCCC2)cc1 (stereo not drawn) as well.
*A* 100

* * *

system: Rhizoctonia solani; assay: In vitro mycelial/spore growth on potato-sucrose-agar, percent disease control (RS, first column); format: cell-based; details: 50 ppm, read-out: % controlled, RS
RECORDED_METRIC: inhibition of growth at 50 ppm
Write the quantity with the unit trailing the number.

Here's what some known entries look like.
- COMPOUND: "CC(n1cncn1)[Si]1(c2ccc(-c3ccccc3)cc2)CCCC1 (stereo not drawn)"
  inhibition of growth at 50 ppm: "100%"
- COMPOUND: "COc1ccc([Si]2(Cn3cncn3)CCCC2)cc1"
  inhibition of growth at 50 ppm: "74%"
- COMPOUND: "FC(F)(F)c1ccc([Si]2(Cn3cncn3)CCCC2)cc1"
  inhibition of growth at 50 ppm: "95%"

*Q* Entry `Fc1ccc([Si]2(Cn3cncn3)CCCCC2)cc1` : reported inhibition of growth at 50 ppm = ?
*A* 55%

*Q* Please do the same for CC(n1cncn1)[Si]1(c2ccc(F)cc2)CCCC1 (stereo not drawn) as well.
*A* 100%

*Q* Please do the same for CC(n1cncn1)[Si]1(c2ccc(Cl)cc2)CCCCC1 (stereo not drawn) as well.
*A* 100%

*Q* Please do the same for `COc1ccc([Si]2(Cn3cncn3)CCCCC2)cc1` as well.
*A* 96%

* * *

system: Rhizoctonia solani; assay: In vitro mycelial/spore growth on potato-sucrose-agar, percent disease control (RS, first column); type: cell-based; settings: 50 ppm, read-out: % controlled, RS
Would you please tag the item 1 when its inhibition of growth at 50 ppm is 90% or above, and -1 when it is below?

Sample answers from the record:
- COMPOUND: "c1ccc(-c2ccc([Si]3(Cn4cncn4)CCCCC3)cc2)cc1"
  CLASSIFICATION: -1
- COMPOUND: "Fc1ccc([Si]2(Cn3cncn3)CCCCC2)c(F)c1"
  CLASSIFICATION: -1
- COMPOUND: "Fc1ccc([Si]2(Cn3cncn3)CCCC2)cc1"
  CLASSIFICATION: 1
- COMPOUND: "CC(n1cncn1)[Si]1(c2ccc(F)cc2F)CCCCC1 (stereo not drawn)"
  CLASSIFICATION: 1
- COMPOUND: "CCOc1ccc([Si]2(Cn3cncn3)CCCCC2)cc1"
  CLASSIFICATION: 1

Moving on to another compound below.
*Q* Assess whether reported inhibition of growth at 50 ppm for `Clc1ccc([Si]2(Cn3cncn3)CCCCC2)cc1` sits at 90% or higher.
*A* -1

* * *

# inhibition of growth at 200 ppm per record follows
system: Botryosphaeri; assay: In vitro mycelial/spore growth on potato-sucrose-agar, percent disease control (BD); type: cell-based; conditions: 200 ppm, read-out: % controlled, BD
The answer is to be given in %; state only the numeric part.

- COMPOUND: "COc1ccc([Si]2(C(C)n3cncn3)CCCC2)cc1 (stereo not drawn)"
  inhibition of growth at 200 ppm [%]: 96
- COMPOUND: "FC(F)(F)c1ccc([Si]2(Cn3cncn3)CCCCC2)cc1"
  inhibition of growth at 200 ppm [%]: 100

*Q* Entry `CCOc1ccc([Si]2(Cn3cncn3)CCCC2)cc1` : reported inhibition of growth at 200 ppm = ?
*A* 89

*Q* Please do the same for `Clc1ccc([Si]2(Cn3cncn3)CCCCC2)c(Cl)c1` as well.
*A* 100

*Q* Please do the same for `CCOc1ccc([Si]2(Cn3cncn3)CCCCC2)cc1` as well.
*A* 100

*Q* Please do the same for CC(n1cncn1)[Si]1(c2ccc(F)cc2)CCCCC1 (stereo not drawn) as well.
*A* 100

*Q* Please do the same for CC(n1cncn1)[Si]1(c2ccc(Cl)cc2)CCCCC1 (stereo not drawn) as well.
*A* 100

*Q* Please do the same for `Fc1ccc([Si]2(Cn3cncn3)CCCCC2)c(F)c1` as well.
*A* 100

*Q* Please do the same for `COc1ccc([Si]2(Cn3cncn3)CCCC2)cc1` as well.
*A* 79

*Q* Please do the same for CC(n1cncn1)[Si]1(c2ccc(Cl)cc2Cl)CCCCC1 (stereo not drawn) as well.
*A* 100

*Q* Please do the same for CCOc1ccc([Si]2(C(C)n3cncn3)CCCCC2)cc1 (stereo not drawn) as well.
*A* 100

*Q* Please do the same for CC(n1cncn1)[Si]1(c2ccc(F)cc2F)CCCCC1 (stereo not drawn) as well.
*A* 100

* * *

tested on: Fusarium moniliforme; assay: In vitro mycelial/spore growth on potato-sucrose-agar, percent disease control (FM); type: cell-based; conditions: Fusarium verticillioides; 50 ppm; Fusarium moniliforme; read-out: % controlled, FM
RECORDED_METRIC: inhibition of growth at 50 ppm (%)
The answer is to be given in %; state only the numeric part.

Here's what some known entries look like.
- COMPOUND: "CC(n1cncn1)[Si]1(c2ccc(C(F)(F)F)cc2)CCCCC1 (stereo not drawn)"
  READOUT_UNITS: "%"
  inhibition of growth at 50 ppm: 58
- COMPOUND: "Fc1ccc([Si]2(Cn3cncn3)CCCCC2)cc1"
  READOUT_UNITS: "%"
  inhibition of growth at 50 ppm: 100
- COMPOUND: "CC(n1cncn1)[Si]1(c2ccc(F)cc2F)CCCC1 (stereo not drawn)"
  READOUT_UNITS: "%"
  inhibition of growth at 50 ppm: 100
- COMPOUND: "CC(n1cncn1)[Si]1(c2ccc(F)cc2)CCCC1 (stereo not drawn)"
  READOUT_UNITS: "%"
  inhibition of growth at 50 ppm: 94
- COMPOUND: "COc1ccc([Si]2(Cn3cncn3)CCCC2)cc1"
  READOUT_UNITS: "%"
  inhibition of growth at 50 ppm: 70
- COMPOUND: "c1ccc(-c2ccc([Si]3(Cn4cncn4)CCCC3)cc2)cc1"
  READOUT_UNITS: "%"
  inhibition of growth at 50 ppm: 47
- COMPOUND: "Clc1ccc([Si]2(Cn3cncn3)CCCC2)c(Cl)c1"
  READOUT_UNITS: "%"
  inhibition of growth at 50 ppm: 100
- COMPOUND: "CC(n1cncn1)[Si]1(c2ccc(-c3ccccc3)cc2)CCCCC1 (stereo not drawn)"
  READOUT_UNITS: "%"
  inhibition of growth at 50 ppm: 100
- COMPOUND: "COc1ccc([Si]2(C(C)n3cncn3)CCCCC2)cc1 (stereo not drawn)"
  READOUT_UNITS: "%"
  inhibition of growth at 50 ppm: 94
- COMPOUND: "CC(n1cncn1)[Si]1(c2ccc(Cl)cc2Cl)CCCC1 (stereo not drawn)"
  READOUT_UNITS: "%"
  inhibition of growth at 50 ppm: 100

*Q* Entry CC(n1cncn1)[Si]1(c2ccc(F)cc2)CCCCC1 (stereo not drawn) : reported inhibition of growth at 50 ppm = ?
*A* 100

*Q* Please do the same for `Clc1ccc([Si]2(Cn3cncn3)CCCC2)cc1` as well.
*A* 100

* * *

test system: Rhizoctonia solani; experiment: In vitro mycelial/spore growth on potato-sucrose-agar, percent disease control (RS, first column); format: cell-based; conditions: 50 ppm, read-out: % controlled, RS
Would you please tag the item class 1 when its inhibition of growth at 50 ppm is 70% or above, and class 0 when it is below?

- MOLECULE: "CC(n1cncn1)[Si]1(c2ccc(-c3ccccc3)cc2)CCCCC1 (centres unmarked)"
  CLASSIFICATION: "class 1"
- MOLECULE: "c1ccc(-c2ccc([Si]3(Cn4cncn4)CCCC3)cc2)cc1"
  CLASSIFICATION: "class 1"
- MOLECULE: "CC(n1cncn1)[Si]1(c2ccc(C(F)(F)F)cc2)CCCC1 (centres unmarked)"
  CLASSIFICATION: "class 1"
- MOLECULE: "COc1ccc([Si]2(C(C)n3cncn3)CCCCC2)cc1 (centres unmarked)"
  CLASSIFICATION: "class 1"
- MOLECULE: "Clc1ccc([Si]2(Cn3cncn3)CCCC2)cc1"
  CLASSIFICATION: "class 1"

Moving on to another molecule below.
*Q* Assess whether reported inhibition of growth at 50 ppm for `FC(F)(F)c1ccc([Si]2(Cn3cncn3)CCCCC2)cc1` sits at 70% or higher.
*A* class 0
